test system: NCI-H226 lung; experiment: NCI-60 one-dose screen, 48 h (100 = growth as untreated, 0 = no growth, -100 = all killed); conditions: 10 µM unless noted
Compounds without any hit were thinned out: in the full panel of roughly 83,000, 20% have a hit. Active and inactive are the calls of the source. How the source made its calls: active means growth percent below 10; inactive means the rest.
Some compounds, each annotated with its measured growth.

Below, 8 compounds whose answers are already recorded.
Smiles structure	Obs value
Cc1ccc2c(n1)C(=O)C(Cl)=C(Nc1cccc(C(F)(F)F)c1)C2=O	73.3% (inactive)
O=S(=O)(NCCCNc1nccc(-c2[nH]c(-c3ccccc3)nc2-c2ccc(F)c(O)c2)n1)c1cccc(F)c1	96.7% (inactive)
COc1cccc(N2CCN(C3=C(Cl)C(=O)c4ncccc4C3=O)CC2)c1	94.7% (inactive)
O=C(CSc1nnc(-c2cccs2)n1-c1ccccc1)Nc1ccccc1F	96.3% (inactive)
O=C(Nc1ccc(Cl)c(C(F)(F)F)c1)Nc1ccc2c(ccn2C(=O)c2cccc(F)c2)c1	36.5% (inactive)
CN1CCN(CC#CCn2c3c(c4ccccc42)C[C@]2(C)[C@H]4CC=C5[C@@H]6CC(C)(C)CC[C@]6(C(=O)N6CCOCC6)CC[C@@]5(C)[C@]4(C)CC[C@H]2C3(C)C)CC1	85.7% (inactive)
CCCN1C=C/C(=C\C(=O)n2ccc3ccccc32)c2ccccc21	75.1% (inactive)
CN1CCN(c2ccc(Nc3nc(NCCCNS(=O)(=O)c4ccc(Cl)cc4)c4sccc4n3)cc2)CC1	99.6% (inactive)

QUERY: So what does the record say about growth for O=C(CSc1nnc(-c2cccs2)n1-c1ccccc1)Nc1ccccc1 ?
RESULT: 64.4% (inactive)

----------
test system: RXF 393 renal; assay: NCI-60 one-dose screen, 48 h (100 = growth as untreated, 0 = no growth, -100 = all killed); conditions: 10 µM unless noted
About 83,000 compounds went through this panel and 20% of them were active in at least one assay; those are over-represented in the sample as a whole.
Endpoint: growth (%)
Form entry: value (%) — number only.

Look over these answered cases.
Smiles structure	Obs value
N#C/C(=N\Nc1ccc(F)cc1)C(=O)Nc1cc(-c2ccccc2)nn1-c1ccccc1	-2.63
COc1ccc(CC(C)=C(c2ccc(OCCN3CCCC3)cc2)c2ccc(OCCN3CCCC3)cc2)cc1	-95.3
COc1ccccc1Cn1cc(C#N)c(N)c1C(=O)c1ccc(Br)cc1	92.1

--- query ---
QUERY: # get_value(readout='growth', item= C#CCN(C)CCCOc1ccc(NC(=O)CCCCCCCCC(=O)NO)cc1Cl )
RESULT: 37.3

----------
Test system: OVCAR-8 ovarian
Assay: NCI-60 one-dose screen, 48 h
Details: 10 µM unless noted
Experimental: Growth inhibition of the OVCAR-8 human tumor cell line is measured as a screen for anti-cancer activity. Cells are grown in 96 well plates and exposed to the test compound for 48 hours. Compounds are tested at a single concentration, which is 10^-5 M for most compounds. The reported endpoint is percent growth (GI% or GIPRCNT), where numbers from 0 - 100% represent growth inhibition, and numbers from -100% - 0 represent cell death. For example, a value of 40 represents 60% growth inhibition. […]
About 83,000 compounds went through this panel and 20% of them were active in at least one assay; those are over-represented in the sample as a whole. Calls of active or inactive are those of the source. The calls were made as follows: active = growth percent below 10; inactive = the rest.
Classes to choose from: t for active, f for inactive

Look over these answered cases.
Molecule	Discrete label
O=C(O)c1ccc(-n2c(=O)n(-c3cccc(C(F)(F)F)c3)c(=O)c3cc(-c4ccc(F)cc4F)ccc32)cc1	f
O=C(CCCCCCN1CC(=O)N2[C@@H](c3cccs3)c3[nH]c4ccccc4c3C[C@H]2C1=O)NO	f
Cc1ccc(-c2cc3nc(C(Cl)Cl)nc(-c4ccc(S(=O)(=O)N(C)C)cc4)n3n2)cc1	f

QUERY: Which outcome was assigned to O=C(CSc1nnc(-c2cccs2)n1-c1ccccc1)Nc1ccccc1 in this test?
RESULT: f

QUERY: Can you look up the reported call for Cc1[nH]c(C(=O)Nc2ccccc2OCc2cccc(C(=O)NCCN)c2)cc1Cl for me?
RESULT: f

QUERY: For CC(C)(C)c1cc(NC(=O)Nc2ccc(-c3cn4c5c(sc4n3)CCc3c[nH]cc3-5)cc2)no1 , what call appears in the results of this test?
RESULT: f

QUERY: Recorded test call requested for Cc1cc(NS(=O)(=O)c2ccc(NC(=O)CSc3nc4ccccc4c(=O)n3-c3ccccc3)cc2)no1
RESULT: f

QUERY: Which result was noted for this molecule in the test: O=C(CSc1nnc(-c2ccc(Cl)cc2)n1-c1ccccc1)Nc1ccc(Cl)cc1
RESULT: f

QUERY: Query: recorded result category for Brc1cc(-c2cc(-c3ccc4c(c3)OCCO4)[nH]n2)cs1 in this test
RESULT: f

QUERY: Recorded call for COc1ccc(-c2cc(-c3ccc(N4CCOCC4)cc3)n3c(n2)nc2ccccc23)cc1OC ?
RESULT: f

QUERY: // param item: Brc1cccc(-c2cc(-c3ccc4c(c3)OC=CO4)[nH]n2)c1 ; yields the recorded call
RESULT: f
